pKi: −log10 of the molar value. Where a SMILES comes first, the peptide text is derived from it. [ ]: non-standard residue; d: D form. Trp(5-OH) = N[C@@H](Cc1c[nH]c2ccc(O)cc12)C(=O)O; Phe(4-Cl) = N[C@@H](Cc1ccc(Cl)cc1)C(=O)O; 4Pal = N[C@@H](Cc1ccncc1)C(=O)O; Ava = NCCCCC(=O)O
The compounds below have reported pKi for EphA4 LBD (Homo sapiens, UniProt P54764).

The cases that follow already have their pKi on record.
* NCCCCC(=O)N[C@@H](Cc1c[nH]c2ccc(O)cc12)C(=O)N[C@@H](Cc1ccc(Cl)cc1)C(=O)N[C@@H](Cc1ccncc1)C(=O)N[C@H](Cc1c[nH]c2ccccc12)C(N)=O [Compound 4] (H-[Ava][Trp(5-OH)][Phe(4-Cl)][4Pal][dW]-NH2) | 5.30 to 6.00
* NCCCC(=O)N[C@@H](Cc1c[nH]c2ccc(O)cc12)C(=O)N[C@@H](Cc1ccc(Cl)cc1)C(=O)N[C@@H](Cc1ccncc1)C(=O)NCCc1cccc2ccccc12 | ≤ 5.30

Could you now look at the following compound, please?
Look up and state reported pKi for NCCCC(=O)N[C@@H](Cc1c[nH]c2ccc(O)cc12)C(=O)N[C@@H](Cc1ccc(Cl)cc1)C(=O)N[C@@H](Cc1ccncc1)C(=O)NCCc1c[nH]c2ccc(O)cc12
5.30 to 6.00
